Data origin, for the record: patent US20250228861A1

- System: HCT116 MTAP-WT cells
- test: Global SDMA levels (in-cell imaging) in MTAP-WT cells
- Type: cell-based
- condition.details: Homo sapiens, HCT-116, 96 h, 4 days
reported.metric: IC50

given.smiles: Cc1cc2cc(C(=O)N(Cc3ccc(C(F)(F)F)cn3)[C@@H](C)c3ncccn3)ccc2nc1N
reported.metric: IC50
test.value: 50 nM
